# shrunken log2 fold change per record follows
# System: Escherichia coli TOP10;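 also: peptides expressed intracellularly from a pBAD plasmid library in pooled LB shake-flask culture, induced with 0.3% L-arabinose, DNA abundance read by NGS, three biological replicates, DESeq2 with apeglm shrinkage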
# MEASUREMENT_DESCRIPTION: shrunken log2 fold change of peptide-encoding DNA abundance (4.5 h post-induction vs induction); higher = less antimicrobial activity (less host growth inhibition)
# STUDY_CONDITIONS: time post-induction: 4.5 h; library: site-saturation at positions 5, 18, 19, 20

{"SEQ": "RRIRVRPPRLPRPRPRPLEKPRP", "MEASURED_ON": "Escherichia coli TOP10", "shrunken log2 fold change": 0.158}
{"SEQ": "RRIRIRPPRLPRPRPRPPSIPRP", "MEASURED_ON": "Escherichia coli TOP10", "shrunken log2 fold change": 0.122}
{"SEQ": "RRIRKRPPRLPRPRPRPPVQPRP", "MEASURED_ON": "Escherichia coli TOP10", "shrunken log2 fold change": 0.83}
{"SEQ": "RRIRWRPPRLPRPRPRPQHHPRP", "MEASURED_ON": "Escherichia coli TOP10", "shrunken log2 fold change": -0.475}
{"SEQ": "RRIRMRPPRLPRPRPRPCRVPRP", "MEASURED_ON": "Escherichia coli TOP10", "shrunken log2 fold change": 0.00805}
{"SEQ": "RRIRPRPPRLPRPRPRPTQWPRP", "MEASURED_ON": "Escherichia coli TOP10", "shrunken log2 fold change": 0.248}
{"SEQ": "RRIRGRPPRLPRPRPRPGFDPRP", "MEASURED_ON": "Escherichia coli TOP10", "shrunken log2 fold change": 0.97}
{"SEQ": "RRIRKRPPRLPRPRPRPNDPPRP", "MEASURED_ON": "Escherichia coli TOP10", "shrunken log2 fold change": -0.0515}
{"SEQ": "RRIRLRPPRLPRPRPRPRWKPRP", "MEASURED_ON": "Escherichia coli TOP10", "shrunken log2 fold change": 0.191}
{"SEQ": "RRIRIRPPRLPRPRPRPCRLPRP", "MEASURED_ON": "Escherichia coli TOP10", "shrunken log2 fold change": -0.468}
{"SEQ": "RRIRMRPPRLPRPRPRPLIQPRP", "MEASURED_ON": "Escherichia coli TOP10", "shrunken log2 fold change": 0.00597}
{"SEQ": "RRIRIRPPRLPRPRPRPGGAPRP", "MEASURED_ON": "Escherichia coli TOP10", "shrunken log2 fold change": 0.288}
{"SEQ": "RRIRHRPPRLPRPRPRPQKFPRP", "MEASURED_ON": "Escherichia coli TOP10", "shrunken log2 fold change": -0.0301}
{"SEQ": "RRIRARPPRLPRPRPRPPFIPRP", "MEASURED_ON": "Escherichia coli TOP10", "shrunken log2 fold change": -0.103}
{"SEQ": "RRIRLRPPRLPRPRPRPHVLPRP", "MEASURED_ON": "Escherichia coli TOP10", "shrunken log2 fold change": -0.0737}
{"SEQ": "RRIRIRPPRLPRPRPRPMAVPRP", "MEASURED_ON": "Escherichia coli TOP10", "shrunken log2 fold change": 0.142}
{"SEQ": "RRIRQRPPRLPRPRPRPASKPRP", "MEASURED_ON": "Escherichia coli TOP10", "shrunken log2 fold change": 0.0503}
{"SEQ": "RRIRDRPPRLPRPRPRPLWGPRP", "MEASURED_ON": "Escherichia coli TOP10", "shrunken log2 fold change": 0.294}
{"SEQ": "RRIRGRPPRLPRPRPRPAQVPRP", "MEASURED_ON": "Escherichia coli TOP10", "shrunken log2 fold change": 0.274}
{"SEQ": "RRIRKRPPRLPRPRPRPLMRPRP", "MEASURED_ON": "Escherichia coli TOP10", "shrunken log2 fold change": 1.35}
{"SEQ": "RRIRVRPPRLPRPRPRPCAPPRP", "MEASURED_ON": "Escherichia coli TOP10", "shrunken log2 fold change": -0.22}
{"SEQ": "RRIRRRPPRLPRPRPRPFPEPRP", "MEASURED_ON": "Escherichia coli TOP10", "shrunken log2 fold change": 0.212}
{"SEQ": "RRIRKRPPRLPRPRPRPKNHPRP", "MEASURED_ON": "Escherichia coli TOP10", "shrunken log2 fold change": 0.109}
{"SEQ": "RRIRDRPPRLPRPRPRPVQRPRP", "MEASURED_ON": "Escherichia coli TOP10", "shrunken log2 fold change": 0.121}
{"SEQ": "RRIRWRPPRLPRPRPRPDNTPRP", "MEASURED_ON": "Escherichia coli TOP10", "shrunken log2 fold change": -0.25}
{"SEQ": "RRIRFRPPRLPRPRPRPVVLPRP", "MEASURED_ON": "Escherichia coli TOP10", "shrunken log2 fold change": 0.0119}
{"SEQ": "RRIRIRPPRLPRPRPRPQSIPRP", "MEASURED_ON": "Escherichia coli TOP10", "shrunken log2 fold change": -0.0763}
{"SEQ": "RRIRSRPPRLPRPRPRPGKWPRP", "MEASURED_ON": "Escherichia coli TOP10", "shrunken log2 fold change": -0.147}
{"SEQ": "RRIRYRPPRLPRPRPRPNWWPRP", "MEASURED_ON": "Escherichia coli TOP10", "shrunken log2 fold change": -0.00469}
{"SEQ": "RRIRPRPPRLPRPRPRPPKAPRP", "MEASURED_ON": "Escherichia coli TOP10", "shrunken log2 fold change": -0.0122}
{"SEQ": "RRIRVRPPRLPRPRPRPLVKPRP", "MEASURED_ON": "Escherichia coli TOP10", "shrunken log2 fold change": -0.0152}
{"SEQ": "RRIRPRPPRLPRPRPRPKQPPRP", "MEASURED_ON": "Escherichia coli TOP10", "shrunken log2 fold change": 0.0475}
{"SEQ": "RRIRQRPPRLPRPRPRPMFTPRP", "MEASURED_ON": "Escherichia coli TOP10", "shrunken log2 fold change": -0.31}
{"SEQ": "RRIRLRPPRLPRPRPRPQAEPRP", "MEASURED_ON": "Escherichia coli TOP10", "shrunken log2 fold change": 0.0388}
{"SEQ": "RRIRARPPRLPRPRPRPRTKPRP", "MEASURED_ON": "Escherichia coli TOP10", "shrunken log2 fold change": 0.565}
{"SEQ": "RRIRPRPPRLPRPRPRPSRAPRP", "MEASURED_ON": "Escherichia coli TOP10", "shrunken log2 fold change": 0.11}
{"SEQ": "RRIRKRPPRLPRPRPRPRLPPRP", "MEASURED_ON": "Escherichia coli TOP10", "shrunken log2 fold change": 0.768}
{"SEQ": "RRIRKRPPRLPRPRPRPNKAPRP", "MEASURED_ON": "Escherichia coli TOP10", "shrunken log2 fold change": 0.0692}
{"SEQ": "RRIRKRPPRLPRPRPRPCKQPRP", "MEASURED_ON": "Escherichia coli TOP10", "shrunken log2 fold change": 0.0173}
{"SEQ": "RRIRRRPPRLPRPRPRPGFFPRP", "MEASURED_ON": "Escherichia coli TOP10", "shrunken log2 fold change": 0.268}
{"SEQ": "RRIRGRPPRLPRPRPRPFIEPRP", "MEASURED_ON": "Escherichia coli TOP10", "shrunken log2 fold change": 0.364}
{"SEQ": "RRIRKRPPRLPRPRPRPYMQPRP", "MEASURED_ON": "Escherichia coli TOP10", "shrunken log2 fold change": -0.0263}
{"SEQ": "RRIRARPPRLPRPRPRPNAVPRP", "MEASURED_ON": "Escherichia coli TOP10", "shrunken log2 fold change": 0.0101}
{"SEQ": "RRIRKRPPRLPRPRPRPPDTPRP", "MEASURED_ON": "Escherichia coli TOP10", "shrunken log2 fold change": 0.896}
{"SEQ": "RRIRIRPPRLPRPRPRPFFGPRP", "MEASURED_ON": "Escherichia coli TOP10", "shrunken log2 fold change": -0.00653}
{"SEQ": "RRIRMRPPRLPRPRPRPLISPRP", "MEASURED_ON": "Escherichia coli TOP10", "shrunken log2 fold change": 0.171}
{"SEQ": "RRIRMRPPRLPRPRPRPFFDPRP", "MEASURED_ON": "Escherichia coli TOP10", "shrunken log2 fold change": 0.232}
{"SEQ": "RRIRFRPPRLPRPRPRPYDYPRP", "MEASURED_ON": "Escherichia coli TOP10", "shrunken log2 fold change": -0.107}
{"SEQ": "RRIRGRPPRLPRPRPRPRVFPRP", "MEASURED_ON": "Escherichia coli TOP10", "shrunken log2 fold change": 1.02}
{"SEQ": "RRIRDRPPRLPRPRPRPFGPPRP", "MEASURED_ON": "Escherichia coli TOP10", "shrunken log2 fold change": -0.0754}
{"SEQ": "RRIRLRPPRLPRPRPRPTIWPRP", "MEASURED_ON": "Escherichia coli TOP10", "shrunken log2 fold change": 0.203}
{"SEQ": "RRIRFRPPRLPRPRPRPHAWPRP", "MEASURED_ON": "Escherichia coli TOP10", "shrunken log2 fold change": -0.126}
{"SEQ": "RRIRRRPPRLPRPRPRPSRHPRP", "MEASURED_ON": "Escherichia coli TOP10", "shrunken log2 fold change": 0.319}
{"SEQ": "RRIRKRPPRLPRPRPRPSNWPRP", "MEASURED_ON": "Escherichia coli TOP10", "shrunken log2 fold change": -0.00865}
{"SEQ": "RRIRQRPPRLPRPRPRPKQVPRP", "MEASURED_ON": "Escherichia coli TOP10", "shrunken log2 fold change": 0.0304}
{"SEQ": "RRIRTRPPRLPRPRPRPRTGPRP", "MEASURED_ON": "Escherichia coli TOP10", "shrunken log2 fold change": 0.312}
{"SEQ": "RRIRCRPPRLPRPRPRPSFYPRP", "MEASURED_ON": "Escherichia coli TOP10", "shrunken log2 fold change": -0.793}
{"SEQ": "RRIRTRPPRLPRPRPRPISAPRP", "MEASURED_ON": "Escherichia coli TOP10", "shrunken log2 fold change": 0.259}
{"SEQ": "RRIRTRPPRLPRPRPRPGWHPRP", "MEASURED_ON": "Escherichia coli TOP10", "shrunken log2 fold change": -0.014}
{"SEQ": "RRIRSRPPRLPRPRPRPNEHPRP", "MEASURED_ON": "Escherichia coli TOP10", "shrunken log2 fold change": -0.655}
{"SEQ": "RRIRSRPPRLPRPRPRPIRIPRP", "MEASURED_ON": "Escherichia coli TOP10", "shrunken log2 fold change": -0.405}
{"SEQ": "RRIRNRPPRLPRPRPRPQQSPRP", "MEASURED_ON": "Escherichia coli TOP10", "shrunken log2 fold change": -0.0808}
{"SEQ": "RRIRPRPPRLPRPRPRPSSWPRP", "MEASURED_ON": "Escherichia coli TOP10", "shrunken log2 fold change": 0.104}
